All figures here come from paper PMC6792352.

Reported CC50 at 24 h values follow for various compounds
protocol_summary: in vitro
setup_conditions: rat, gh3-tre-luc cells, AC50 (uM) modified / 1000
Structures can show the parent of a compound that is named as a salt.

Solved cases (7 shown):
[[record]]
compound = "C[N@+]12CCCC[C@@H]1CCC(=C(c1cccs1)c1cccs1)C2 (racemic) [Tiquizium bromide]"
assay_value = "> 50 µM"

[[record]]
compound = "O=C1CC2(CCCC2)CC(=O)N1CCNCC1COc2ccccc2O1 (centres unmarked) [Binospirone mesylate]"
assay_value = "41.9 µM"

[[record]]
compound = "CO[Si](CCCCl)(OC)OC [(3-Chloropropyl)trimethoxysilane]"
assay_value = "> 90 µM"

[[record]]
compound = "OP(O)c1ccccc1 [Phenylphosphinic acid]"
assay_value = "> 90 µM"

[[record]]
compound = "[H]/N=C(\\N/C(=N/[H])Nc1ccc(Cl)cc1)NC(C)C [Proguanil hydrochloride]"
assay_value = "> 20 µM"

[[record]]
compound = "CC(C)(O)c1cnn2c(-c3ccc(F)c(-c4c(F)cccc4C#N)c3)cnc2n1 [PharmaGSID_47330]"
assay_value = "> 90 µM"

[[record]]
compound = "CC[C@H]1CC[C@H](NCc2cc3c(cc2OC)[C@H]2C[C@H]2C(=O)N3C)[C@H](c2ccccc2)N1 [CP-728663]"
assay_value = "35.3 µM"


Read the next record carefully.
Entry under test: O=NN1CCN(N=O)CC1 [Dinitrosopiperazine] . Its CC50 at 24 h was > 90 µM

====

protocol_summary: in vitro
setup_conditions: rat, gh3-tre-luc cells, AC50 (uM) modified / 1000
Counter-ions that a name gives are not always drawn.
Reported CC50 at 24 h values follow for various compounds

Solved cases (5 shown):
[[record]]
compound = "C=Cc1ccc(C)cc1 [4-Methylstyrene]"
assay_value = "> 90 µM"

[[record]]
compound = "COc1ccnc(C[S+]([O-])c2nc3ccc(OC(F)F)cc3[nH]2)c1OC (stereo not drawn) [Pantoprazole sodium]"
assay_value = "> 90 µM"

[[record]]
compound = "CC1(C)NC(=O)N(c2ccc([N+](=O)[O-])c(C(F)(F)F)c2)C1=O [Nilutamide]"
assay_value = "> 90 µM"

[[record]]
compound = "CC1=NS(=O)(=O)c2cc(Cl)ccc2N1 [Diazoxide]"
assay_value = "> 50 µM"

[[record]]
compound = "CNC(C)Cc1ccccc1 (racemic) [dl-Methamphetamine hydrochloride]"
assay_value = "> 90 µM"


Entry under test: c1ccc2c(c1)ccc1ccccc12 [Phenanthrene] . Its CC50 at 24 h was > 90 µM

Entry under test: Cc1c(N(C)C)c(=O)n(-c2ccccc2)n1C [4-Dimethylaminoantipyrine] . Its CC50 at 24 h was > 50 µM

====

protocol_summary: in vitro
setup_conditions: rat, gh3-tre-luc cells, AC50 (uM) modified / 1000
measured_metric: CC50 at 24 h

Entry under test: CC1(O)CSC(C)(O)CS1 (centres unmarked) . Its CC50 at 24 h was > 90 µM

====

Reported CC50 at 24 h values follow for various compounds
protocol_summary: in vitro
setup_conditions: rat, gh3-tre-luc cells, AC50 (uM) modified / 1000

Solved cases (2 shown):
[[record]]
compound = "CCC1(c2ccc(N)cc2)CCC(=O)NC1=O (stereo not shown) [Aminoglutethimide]"
assay_value = "> 50 µM"

[[record]]
compound = "CCN1CCC2(CC1)COc1cc3c(cc12)N(C(=O)c1ccc(-c2ccc(-c4nnc(C)o4)cc2C)cc1)CC3 [SB236057A]"
assay_value = "3 µM"


Entry under test: CCN(CCC#N)c1ccc(N=Nc2c(Cl)cc([N+](=O)[O-])cc2Cl)cc1 [C.I. Disperse Orange 37] . Its CC50 at 24 h was 33.4 µM

Entry under test: O=S1(=O)CCCO1 [1,3-Propane sultone] . Its CC50 at 24 h was > 90 µM

====

Reported CC50 at 24 h values follow for various compounds
protocol_summary: in vitro
setup_conditions: rat, gh3-tre-luc cells, AC50 (uM) modified / 1000
Structures can show the parent of a compound that is named as a salt.

Solved cases (8 shown):
[[record]]
compound = "O=C1CCCCC1C1CCCCC1 (centres unmarked)"
assay_value = "> 90 µM"

[[record]]
compound = "C1CCNCC1"
assay_value = "> 90 µM"

[[record]]
compound = "C[C@@H]1CN(CCCn2c3ccccc3c3ccccc32)C[C@H](C)N1 [Rimcazole dihydrochloride]"
assay_value = "7.99 µM"

[[record]]
compound = "O=C1c2ccccc2C(=O)N1SC(Cl)(Cl)Cl"
assay_value = "4.47 µM"

[[record]]
compound = "CC(=O)CC/C=C(\\C)CCC=C(C)C"
assay_value = "> 90 µM"

[[record]]
compound = "c1cc(OCC2CO2)cc(OCC2CO2)c1 (centres unmarked)"
assay_value = "17.3 µM"

[[record]]
compound = "O=C(O)CN(CCOCCOCCN(CC(=O)O)CC(=O)O)CC(=O)O"
assay_value = "> 50 µM"

[[record]]
compound = "O=Cc1cc2ccccc2o1"
assay_value = "> 90 µM"


Entry under test: CNC(=O)ON=CC(C)(C)[S+](C)[O-] (centres unmarked) [Aldicarb sulfoxide] . Its CC50 at 24 h was > 90 µM

Entry under test: "OC(C#CCN1CCCC1)(c1ccccc1)c1ccccc1" . Its CC50 at 24 h was 35.3 µM

Entry under test: CCN(CC)CCNC(C(=O)OCCC(C)C)c1ccccc1 (centres unmarked) . Its CC50 at 24 h was > 50 µM

Entry under test: "CCCCC/C=C\C/C=C\CCCCCCCC(=O)O" . Its CC50 at 24 h was > 90 µM

Entry under test: CCNS(=O)(=O)C(F)(F)C(F)(F)C(F)(F)C(F)(F)C(F)(F)C(F)(F)C(F)(F)C(F)(F)F [N-Ethylperfluorooctanesulfonamide] . Its CC50 at 24 h was > 90 µM

Entry under test: "Fc1ccc(Br)cc1" . Its CC50 at 24 h was > 90 µM

====

protocol_summary: in vitro
setup_conditions: rat, gh3-tre-luc cells, AC50 (uM) modified / 1000
Reported CC50 at 24 h values follow for various molecules

Solved cases (2 shown):
[[record]]
molecule = "C1CCCNCCC1 [Heptamethyleneimine]"
assay_value = "> 90 µM"

[[record]]
molecule = "O=C(Nc1ccccc1)Nc1ccccc1 [Diphenylurea]"
assay_value = "> 90 µM"


Entry under test: CO[C@H]1O[C@H](CO)[C@@H](O)[C@H](O)[C@H]1O [Methyl alpha-D-glucopyranoside] . Its CC50 at 24 h was > 90 µM

====

protocol_summary: in vitro
setup_conditions: rat, gh3-tre-luc cells, AC50 (uM) modified / 1000
Reported CC50 at 24 h values follow for various molecules

[[record]]
molecule = "C=C(C)C(=O)OCCOC1CC2CC1C1C=CCC21 (stereo not drawn)"
assay_value = "> 100 µM"


Read the next record carefully.
Entry under test: CC1=CC(=O)CC(C)(C)[C@@]1(O)/C=C/C(C)=C\C(=O)O [Abscisic acid] . Its CC50 at 24 h was > 90 µM

====

protocol_summary: in vitro
setup_conditions: rat, gh3-tre-luc cells, AC50 (uM) modified / 1000
measured_metric: CC50 at 24 h

[[record]]
molecule = "CCCC(=O)OCCC(C)C [Isopentyl butyrate]"
assay_value = "> 90 µM"

[[record]]
molecule = "C[C@@H]1C(=O)C[C@H]2[C@]3(C)CC[C@@]2([C@H](C)C(=O)O)C(=O)[C@H]13"
assay_value = "> 50 µM"

[[record]]
molecule = "CC(C)OC(=O)c1cc(C(=O)OC(C)C)cc([N+](=O)[O-])c1"
assay_value = "> 90 µM"

[[record]]
molecule = "Cc1nc2sccn2c(=O)c1CCN1CCC(=C(c2ccc(F)cc2)c2ccc(F)cc2)CC1"
assay_value = "28.7 µM"

[[record]]
molecule = "Cc1ccc(N(CCO)CCO)cc1 [2,2'-[(4-Methylphenyl)imino]diethanol]"
assay_value = "> 90 µM"

[[record]]
molecule = "Nc1ccc2cc(S(=O)(=O)O)cc(O)c2c1"
assay_value = "> 90 µM"

[[record]]
molecule = "C=COCC1CCC(CO)CC1 (stereo not drawn)"
assay_value = "> 90 µM"

[[record]]
molecule = "C=CC(C)(CCC=C(C)C)OC(=O)c1ccccc1N (stereo not drawn) [Linalyl anthranilate]"
assay_value = "> 90 µM"

[[record]]
molecule = "Clc1ccc(COC(Cn2ccnc2)c2ccc(Cl)cc2Cl)c(Cl)c1 (stereo not drawn)"
assay_value = "15 µM"

[[record]]
molecule = "OC[C@H]1O[C@@](CO)(O[C@H]2O[C@H](CO)[C@@H](O)[C@H](O)[C@H]2O)[C@@H](O)[C@@H]1O"
assay_value = "> 90 µM"


Entry under test: "CCCCCCCCCCCCCCBr" . Its CC50 at 24 h was > 100 µM

Entry under test: "NC(=O)Nc1ccc(Cl)cc1" . Its CC50 at 24 h was > 90 µM

Entry under test: C=C(C)C(=O)OCCCCCCCC(C)C [Isodecyl methacrylate] . Its CC50 at 24 h was > 90 µM

Entry under test: "O=C(CCCN1CCC(C(=O)c2ccc(F)cc2)CC1)c1ccc(F)cc1" . Its CC50 at 24 h was > 50 µM

Entry under test: "O=c1[nH]cnc2nc[nH]c12" . Its CC50 at 24 h was > 50 µM
